Where do the numbers come from? From patent US20260216326A1.

Target: T1, human TL1A (human, UniProt O95150 72-251, limits assumed)
T1 construct: also called tumor necrosis factor-like cytokine 1A; TNFSF15
T1 sequence (looked up): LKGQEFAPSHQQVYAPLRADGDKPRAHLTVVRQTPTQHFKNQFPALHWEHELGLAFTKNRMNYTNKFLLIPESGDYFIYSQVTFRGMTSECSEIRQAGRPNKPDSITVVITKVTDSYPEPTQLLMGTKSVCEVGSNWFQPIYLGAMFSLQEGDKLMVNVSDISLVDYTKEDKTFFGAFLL
Experiment: ELISA titration on plate-coated human TL1A, unpurified culture supernatant
// reported pKd for each item listed
pKd is defined as minus the log10 of a concentration measured in mol/L.

// known answers, use as guide
1. A173 (antibody, IgG1, V domains shown) VH: QVQLVQSGAEVKKPGASVKVSCKASGFDIQDTYMHWVKQAPGQGLEWMGRIEPASGHIKYDPKFQGRATMTRDTSTSTVYMELSSLRSEDTAVYYCARSGGLPDWWGQGTTVTVSS VL: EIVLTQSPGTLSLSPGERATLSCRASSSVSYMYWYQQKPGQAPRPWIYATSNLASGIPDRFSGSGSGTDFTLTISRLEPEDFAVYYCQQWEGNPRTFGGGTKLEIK    10.40
2. A197 (antibody, IgG1, V domains shown) VH: EVQLVQSGAEVKKPGASVKVSCKASGFDIQDTYMHWVKQAPGQGLEWMGRIEPASGHIKYDPKFQGRVTMTRDTSTSTVYMELSSLRSEDTAVYYCARSGGLPDWWGQGTTVTVSS VL: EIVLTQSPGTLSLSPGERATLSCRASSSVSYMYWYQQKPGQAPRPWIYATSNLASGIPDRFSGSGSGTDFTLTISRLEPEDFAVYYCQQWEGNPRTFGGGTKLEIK    10.27

# ---- query binder ----
-- ask // query pKd value for entry A170 (antibody, IgG1, V domains shown) VH: QVQLVQSGAEVKKPGASVKVSCKASGFDIQDTYMHWVRQAPGQGLEWMGRIDPASGHIKYDPKFQGRVTMTRDTSTSTAYMELSSLRSEDTAVYYCARSGGLPDWWGQGTTVTVSS VL: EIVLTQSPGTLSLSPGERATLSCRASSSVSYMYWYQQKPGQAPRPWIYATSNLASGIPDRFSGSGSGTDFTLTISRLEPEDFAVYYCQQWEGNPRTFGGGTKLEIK
-- reply 10.31
